- study_target: ligand binding domain of the glucocorticoid receptor (HEK293 cells stably expressing) (Homo sapiens)
- Sequence (P04150 524-758 limits assumed): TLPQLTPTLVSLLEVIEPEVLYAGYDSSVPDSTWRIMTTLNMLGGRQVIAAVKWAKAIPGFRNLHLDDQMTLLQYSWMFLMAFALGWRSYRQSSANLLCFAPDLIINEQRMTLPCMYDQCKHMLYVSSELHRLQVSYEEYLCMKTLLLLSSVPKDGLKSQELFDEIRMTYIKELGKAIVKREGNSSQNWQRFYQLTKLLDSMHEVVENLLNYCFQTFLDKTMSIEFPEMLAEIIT
- test_protocol: GR antagonism assay (luciferase reporter)
Numbered stars: 1 amine (or outer) side, 2 acyl side, 3 side chain; on linkers, the order of the positions; unused ones are H or OH. Square brackets hold non-standard residues; d marks the D form. Peptide text beside a SMILES is read from it. * marks the point of attachment. X1 = CC(=O)O[C@]1(C(C)=O)CC[C@H]2[C@@H]3CCC4=CC(=O)CCC4=C3[C@@H](c3ccc(*)cc3)C[C@@]21C; Exatecan = CC[C@@]1(O)C(=O)OCc2c1cc1n(c2=O)Cc2c-1nc1cc(F)c(C)c3c1c2[C@@H](N*)CC3; NHCH2OCH2CO = O=C(COCN[*:1])[*:2]; Sar = CNCC(=O)O
measured_quantity: IC50

>  <compound>
CC[C@@]1(O)C(=O)OCc2c1cc1n(c2=O)Cc2c-1nc1cc(F)c(C)c3c1c2[C@@H](N(C)C(=O)COCC1CCN(CCCCCCCN(C)c2ccc([C@H]4C[C@@]5(C)[C@@H](CC[C@]5(OC(C)=O)C(C)=O)[C@@H]5CCC6=CC(=O)CCC6=C54)cc2)CC1)CC3

>  <experimental_value>
10 to 100 nM

$$$$
>  <compound>
CC[C@@]1(O)C(=O)OCc2c1cc1n(c2=O)Cc2cc3c(CN4CCN(C(=O)C5CCN(c6ccc(C(=O)N[C@H]7CC[C@H](Oc8ccc(C#N)c(Cl)c8C)CC7)nn6)CC5)CC4)c(O)ccc3nc2-1

>  <experimental_value>
> 1000 nM

$$$$
>  <compound>
CC[C@@]1(O)C(=O)OCc2c1cc1n(c2=O)Cc2cc3c(CN4CCN(C(=O)C5CCN(c6ccc(C(=O)N[C@H]7CC[C@H](Oc8ccc(C#N)c(Cl)c8C)CC7)nn6)CC5)CC4)c(OC(=O)N4C[C@H](C)N(C)C[C@H]4C)ccc3nc2-1

>  <experimental_value>
> 1000 nM

$$$$
>  <compound>
CC[C@@]1(O)C(=O)OCc2c1cc1n(c2=O)Cc2c-1nc1cc(F)c(C)c3c1c2[C@@H](NC(=O)COCNC(=O)CNC(=O)[C@H](Cc1ccccc1)NC(=O)CNC(=O)CN(C)c1ccc([C@H]2C[C@@]4(C)[C@@H](CC[C@]4(OC(C)=O)C(C)=O)[C@@H]4CCC5=CC(=O)CCC5=C42)cc1)CC3 [Compound 34] (X1-[Sar]GFG[NHCH2OCH2CO]-Exatecan)

>  <experimental_value>
101 to 1000 nM

$$$$
>  <compound>
CC[C@@]1(O)C(=O)OCc2c1cc1n(c2=O)Cc2c-1nc1cc(F)c(C)c3c1c2[C@@H](NCC1CCN(CC2CCN(C(=O)CN(C)c4ccc([C@H]5C[C@@]6(C)[C@@H](CC[C@]6(OC(C)=O)C(C)=O)[C@@H]6CCC7=CC(=O)CCC7=C65)cc4)CC2)CC1)CC3

>  <experimental_value>
10 to 100 nM

$$$$
>  <compound>
CC[C@@]1(O)C(=O)OCc2c1cc1n(c2=O)Cc2cc3c(CN(C)C)c(OC(=O)N4CCN(CCCCCCCCN(C)c5ccc([C@H]6C[C@@]7(C)[C@@H](CC[C@]7(OC(C)=O)C(C)=O)[C@@H]7CCC8=CC(=O)CCC8=C76)cc5)CC4)ccc3nc2-1

>  <experimental_value>
10 to 100 nM

$$$$
>  <compound>
CC[C@@]1(OC(=O)N2CCN(CC3CCN(c4ccc(C(=O)N[C@H]5CC[C@H](Oc6ccc(C#N)c(Cl)c6C)CC5)nn4)CC3)CC2)C(=O)OCc2c1cc1n(c2=O)Cc2cc3cc(OC)ccc3nc2-1

>  <experimental_value>
> 1000 nM

$$$$
>  <compound>
CC[C@@]1(O)C(=O)OCc2c1cc1n(c2=O)Cc2cc3c(CN(C)C)c(OC(=O)N4C5CC4CN(CCCCCCN(C)c4ccc([C@H]6C[C@@]7(C)[C@@H](CC[C@]7(OC(C)=O)C(C)=O)[C@@H]7CCC8=CC(=O)CCC8=C76)cc4)C5)ccc3nc2-1

>  <experimental_value>
10 to 100 nM

$$$$
>  <compound>
CCCCCCC(=O)O[C@]1(CC)C(=O)OCc2c1cc1n(c2=O)Cc2cc3c(CN(C)C)c(OC(=O)N4CCN(CCCCCCN(C)c5ccc([C@H]6C[C@@]7(C)[C@@H](CC[C@]7(OC(C)=O)C(C)=O)[C@@H]7CCC8=CC(=O)CCC8=C76)cc5)CC4)ccc3nc2-1

>  <experimental_value>
10 to 100 nM

$$$$
